System: MFM-223
Run Description: normalised response (% of control), CellTox Green; higher = less cell death (100 = DMSO, 0 = benzethonium chloride kill control)
Run Conditions: incubation time: 72 h
Readout Type: normalised response (%)
Numeric only. Scale: %

See these solved cases before continuing.
{"Molecule": "CNC(=O)c1cc(Oc2ccc(NC(=O)Nc3ccc(Cl)c(C(F)(F)F)c3)c(F)c2)ccn1 [Regorafenib] (1000 nM)", "normalised response (%)": 102}
{"Molecule": "c1ccc2c(CCNc3ccc(Nc4ccncc4)cc3)c[nH]c2c1 [Serdemetan] (1000 nM)", "normalised response (%)": 97.8}
{"Molecule": "O=C(Nc1cccnc1)N1CCC(Cc2cccc(Oc3ccc(C(F)(F)F)cn3)c2)CC1 [PF-3845] (1000 nM)", "normalised response (%)": 102}

// normalised response lookup, molecule = CC(C)C[C@@H](C(=O)N[C@H](C(=O)OC1CCCC1)c1ccccc1)[C@H](O)C(=O)NO [Tosedostat] (1000 nM) , result: 31.9

// normalised response lookup, molecule = O=C(Nc1cccnc1)N1CCC(Cc2cccc(Oc3ccc(C(F)(F)F)cn3)c2)CC1 [PF-3845] (100 nM) , result: 102

// normalised response lookup, molecule = COCC[n+]1c2c(n(Cc3cnccn3)c1C)C(=O)c1ccccc1C2=O [YM155] (100 nM) , result: 70.4

// normalised response lookup, molecule = O=P1(N(CCCl)CCCl)NCCCO1 (stereo unspecified) [Cyclophosphamide] (40000 nM) , result: 102

----------
Listed below: normalised response values for each entry.
Tested on: HCC1143
Run Description: normalised response (% of control), CellTiter-Glo; higher = more viable cells (100 = DMSO, 0 = benzethonium chloride kill control)
Run Conditions: incubation time: 72 h
Numeric only. Scale: %

{"Compound": "CN(C)CCOc1ccc(/C(=C(/CCCl)c2ccccc2)c2ccccc2)cc1 [Toremifene] (1000 nM)", "Tgt": "HCC1143", "Endpoint Result": 96.3}
{"Compound": "COc1cc2/c(=N/c3ccc(Br)cc3F)nc[nH]c2cc1OCC1CCN(C)CC1 [Vandetanib] (0.1 nM)", "Tgt": "HCC1143", "Endpoint Result": 88.7}
{"Compound": "CCn1c(-c2nonc2N)nc2cnc(Oc3cccc(NC(=O)c4ccc(OCCN5CCOCC5)cc4)c3)cc21 (1000 nM)", "Tgt": "HCC1143", "Endpoint Result": 97.9}

// normalised response lookup, compound = COc1cc2/c(=N/c3ccc(Br)cc3F)nc[nH]c2cc1OCC1CCN(C)CC1 [Vandetanib] (100 nM) , result: 86.2

// normalised response lookup, compound = CNC(=O)c1cccc(-c2ccc3c(N4CCOC[C@@H]4C)nc(N4CCOC[C@@H]4C)nc3n2)c1 [AZD2014] (10 nM) , result: 99.8

// normalised response lookup, compound = CCc1c2c(nc3ccc(OC(=O)N4CCC(N5CCCCC5)CC4)cc13)-c1cc3c(c(=O)n1C2)COC(=O)[C@]3(O)CC [Irinotecan] (1 nM) , result: 93.9

// normalised response lookup, compound = CNC(=O)c1ccc(N2C(=S)N(c3ccc(C#N)c(C(F)(F)F)c3)C(=O)C23CCC3)cc1F [RD162] (1 nM) , result: 93.7

// normalised response lookup, compound = COC(=O)c1ccc2c(c1)NC(=O)/C2=C(\Nc1ccc(N(C)C(=O)CN2CCN(C)CC2)cc1)c1ccccc1 [Nintedanib] (10 nM) , result: 97

// normalised response lookup, compound = C=C1C[C@@H]2[C@H](CC[C@]3(C)C(=O)CC[C@@H]23)[C@@]2(C)C=CC(=O)C=C12 [Exemestane] (10 nM) , result: 99.7

// normalised response lookup, compound = CO[C@H]1C[C@@H]2CC[C@@H](C)[C@@](O)(O2)C(=O)C(=O)N2CCCC[C@H]2C(=O)O[C@H]([C@H](C)C[C@@H]2CC[C@@H](OP(C)(C)=O)[C@H](OC)C2)CC(=O)[C@H](C)/C=C(\C)[C@@H](O)[C@@H](OC)C(=O)[C@H](C)C[C@H](C)/C=C/C=C/C=C/1C [Ridaforolimus] (10 nM) , result: 65

// normalised response lookup, compound = COC(=O)c1ccc2c(c1)NC(=O)/C2=C(\Nc1ccc(N(C)C(=O)CN2CCN(C)CC2)cc1)c1ccccc1 [Nintedanib] (1 nM) , result: 97.1

// normalised response lookup, compound = Cc1ccc(NC(=O)c2ccc(CN3CCN(C)CC3)cc2)cc1Nc1nc(-c2cccnc2)cs1 [Masitinib] (1 nM) , result: 100

// normalised response lookup, compound = CNC(=O)c1ccc(N2C(=S)N(c3ccc(C#N)c(C(F)(F)F)c3)C(=O)C2(C)C)cc1F [Enzalutamide] (10 nM) , result: 103

Numbers sourced from the supplement of paper PMC4862054.
